Target: T1, SLF1^tBRCT K56A (UniProt Q9BQI6 1-199, K56A)
T1 construct: SMC5/6 localization factor 1 (SLF1), tandem BRCT repeat, residues 1-199, with K56A; also called K56A-substituted SLF1^tBRCT; source: E. coli BL21 Rosetta (DE3), purified (same protocol as the wild type)
T1 sequence (looked up): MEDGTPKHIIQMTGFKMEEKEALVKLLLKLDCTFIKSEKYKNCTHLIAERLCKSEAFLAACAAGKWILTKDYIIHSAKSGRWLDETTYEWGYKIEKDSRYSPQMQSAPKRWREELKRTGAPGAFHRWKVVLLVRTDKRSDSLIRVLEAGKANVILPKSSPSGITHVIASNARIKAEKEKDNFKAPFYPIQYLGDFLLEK
Assay: ITC; MicroCal ITC 200, 25 °C, 20 mM Tris (pH 7.5), 200 mM sodium chloride; 1.3 mM Rad18 peptide or 6 mM BRCTide injected into 0.1 mM (Rad18 peptides) or 0.2 mM (BRCTide) SLF1^tBRCT in the cell; three independent repeats
Settings: both partners purified
Square brackets hold non-standard residues; d marks the D form. Ends that are not written are not given here. pS = N[C@@H](COP(=O)(O)O)C(=O)O
measurement kind: Kd (nM)
Reply numerically in nM, unit not repeated.

Given the binder SDSCNS[pS]S[pS]DIIRDLLE (peptide, UniProt Q9NS91 436-452, looked up, Rad18, human, Ser442/Ser444-containing region, residues 436-452; also called dually phosphorylated Rad18 peptide; source: synthetic peptide) [Rad18 peptide containing phosphorylated Ser442 and Ser444 (Rad18-2P)] , what is its reported Kd?
2210

The values you see were collected from paper PMC10598736.
